// data source = the OligoGym collection

biological target: DLGAP2; assay: pooled miR-30 sensor sort-seq; sequence = guide strand; conditions: shRNA; note: reference of the scale not given here
QUANTITY_KIND: sensor-assay potency score (higher = more potent)

# SEQUENCE_CONTENT, VAL
measured = [
    ("TAGATCTCGATGCTGTCCGCGC", -0.416),
    ("TTCAACTTCACTGAAGACGGAC", -0.0753),
    ("TTGACGTCGTTGTTGCTCTTGG", 0.201),
    ("TTGTATATGAGACAGCTGCTGT", -0.506),
    ("ATAGGTGCTGTCGCTGTCCAGG", -0.97),
]

* * *

Entries annotated with measured sensor-assay potency score (higher = more potent)
biological target: C2orf57; assay: pooled miR-30 sensor sort-seq; sequence = guide strand; details: shRNA
QUANTITY_KIND: sensor-assay potency score (higher = more potent)

# SEQUENCE_CONTENT, VAL
measured = [
    ("TGTCCTTGCGTCTTGAACCTGC", 0.175),
    ("AACAACTGCACTCTTGTCTTTG", -0.961),
    ("AAAACCACTAGACTCTGACTTG", -0.273),
    ("TTGTCCTTGCGTCTTGAACCTG", -1.12),
    ("TTGTCTTTGTCTCCAGATGTTG", -1.39),
    ("TCTCTCAGGAACACTCGCCATT", -1.27),
    ("TTCTGGAACAACTGCACTCTTG", -1.11),
    ("TGACATCTTGTCTTTACCCAGG", -0.635),
    ("TAAAGCTTCAGCTTCAGGGTGT", 0.632),
]

* * *

molecular target: ODF3L1; assay: pooled miR-30 sensor sort-seq; sequence = guide strand; conditions: shRNA
QUANTITY_KIND: sensor-assay potency score (higher = more potent)

# SEQUENCE_CONTENT, TESTED_TARGET, VAL
records = [
    ("TGATCTATGTAGCCCGTGCAGG", "ODF3L1", -1.19),
    ("TTGAGGTCCATCACTCTGTATG", "ODF3L1", -1.32),
    ("TCCTTGTAGAACCAGTTCTTGT", "ODF3L1", -1.85),
    ("ATCTTCTCAAAGTAGTACTGGC", "ODF3L1", -0.892),
    ("TTGAACATGGAGATGTCATGAT", "ODF3L1", 0.585),
    ("TAAGCTGGTGCCTTGAACATGG", "ODF3L1", 0.328),
    ("ACATCCTCCTTGTAGAACCAGT", "ODF3L1", -1.04),
]

* * *

target: FBXL21; experiment: pooled miR-30 sensor sort-seq; sequence = guide strand; details: shRNA
Category key, based on recorded sensor-assay potency score (higher = more potent): low bin = under -0.6, mid bin = from -0.6 up to 0.1, high bin = 0.1 and over

# SEQUENCE_CONTENT, CATEGORY_LABEL
rows = [
    ("TAACAACATTAACTCTAGGGGA", "mid bin"),
    ("TCACACAGTCTTACAAACCTGA", "high bin"),
    ("TAGAGTGTCACTATTATTGGCC", "high bin"),
    ("TTTAATGATCTGCTGAATGAGA", "mid bin"),
    ("TGCATAACAACATTAACTCTAG", "low bin"),
    ("TTGAGTTGATAAAAACAACTGT", "high bin"),
    ("AACAACATTAACTCTAGGGGAA", "mid bin"),
    ("TCAAATTCAAACTTTCTCCAAA", "mid bin"),
    ("TTAACATGAGTCTCGCTTGAGA", "low bin"),
]
